Conditions: human gut metagenome, 24 h, 2 µM; note: call rule not given here
Measured Parameter: Bacterial Biotransformation

These solved cases illustrate the format of a correct answer.
* CCOC(=O)[C@H](CCc1ccccc1)N[C@@H](C)C(=O)N1CCC[C@H]1C(=O)O.O=C(O)/C=C\C(=O)O [ENALAPRIL MALEATE] | Compound NOT metabolized
* N=C(N)NC(=O)Cc1c(Cl)cccc1Cl [GUANFACINE] | Compound NOT metabolized
* CC12CC3CC(C)(C1)CC(N)(C3)C2 [MEMANTINE] | Compound NOT metabolized
* O=C1C(CC[S+]([O-])c2ccccc2)C(=O)N(c2ccccc2)N1c1ccccc1 (stereo not drawn) [SULFINPYRAZONE] | Compound metabolized
* CCN1CCCC1CNC(=O)c1cc(S(=O)(=O)CC)c(N)cc1OC (stereo not drawn) [AMISULPRIDE] | Compound NOT metabolized

Documented Bacterial Biotransformation of CN(C)CCC=C1c2ccccc2COc2ccccc21 [DOXEPIN] : Compound NOT metabolized

---

Details: human gut metagenome, 24 h, 2 µM
Measured Parameter: Bacterial Biotransformation

- CN1CCN(C2=Nc3ccccc3Oc3ccc(Cl)cc32)CC1.O=C(O)CCC(=O)O [LOXAPINE SUCCINATE]: Compound NOT metabolized
- CCOc1ccc2nc(S(N)(=O)=O)sc2c1 [ETHOXZOLAMIDE]: Compound NOT metabolized
- CC(C)NCC(O)COc1ccc(CC(N)=O)cc1 (stereo not given): Compound NOT metabolized
- Nc1nc(NC2CC2)c2ncn([C@H]3C=C[C@@H](CO)C3)c2n1.Nc1nc(NC2CC2)c2ncn([C@H]3C=C[C@@H](CO)C3)c2n1.O=S(=O)(O)O [ABACAVIR SULFATE]: Compound NOT metabolized
- CNCC[C@H](Oc1cccc2ccccc12)c1cccs1: Compound NOT metabolized
- CC(C)(C)NCC(O)c1cc(Cl)c(N)c(Cl)c1 (stereo not given): Compound NOT metabolized
- CCS(=O)(=O)CCn1c([N+](=O)[O-])cnc1C: Compound metabolized
- CC(=O)O[C@H]1C(=O)[C@@]2(C)[C@H]([C@H](OC(=O)c3ccccc3)[C@]3(O)C[C@H](OC(=O)[C@H](O)[C@@H](NC(=O)c4ccccc4)c4ccccc4)C(C)=C1C3(C)C)[C@]1(OC(C)=O)CO[C@@H]1C[C@@H]2O: Compound NOT metabolized
- CCCCCNC(=N)N/N=C/c1c[nH]c2ccc(OC)cc12.O=C(O)/C=C\C(=O)O [TEGASEROD MALEATE]: Compound NOT metabolized
- CC(N)C12CC3CC(CC(C3)C1)C2 (stereo not given): Compound NOT metabolized

Documented Bacterial Biotransformation of CC(C)(C)NCC(O)COc1cccc2c1CC(O)C(O)C2 (stereo not given) : Compound NOT metabolized

Documented Bacterial Biotransformation of O=C1N=C([O-])NC1(c1ccccc1)c1ccccc1.[Na+] [PHENYTOIN SODIUM] : Compound metabolized

Documented Bacterial Biotransformation of CC(C)c1c(CN(C)C(C)Cc2ccccc2)n(C)n(-c2ccccc2)c1=O (stereo not given) : Compound metabolized

Documented Bacterial Biotransformation of `C=CC[C@@H]1/C=C(\C)C[C@H](C)C[C@H](OC)[C@H]2O[C@@](O)(C(=O)C(=O)N3CCCC[C@H]3C(=O)O[C@H](/C(C)=C/[C@@H]3CC[C@@H](O)[C@H](OC)C3)[C@H](C)[C@@H](O)CC1=O)[C@H](C)C[C@@H]2OC.O` : Compound metabolized

Documented Bacterial Biotransformation of CN1CCC[C@@H]1CCO[C@](C)(c1ccccc1)c1ccc(Cl)cc1.O=C(O)/C=C/C(=O)O [CLEMASTINE FUMARATE] : Compound metabolized

---

Conditions: human gut metagenome, 24 h, 2 µM
Measured Parameter: Bacterial Biotransformation

These solved cases illustrate the format of a correct answer.
- CC(C)(C)NCC(O)COc1cccc2c1CC(O)C(O)C2 (stereo not given): Compound NOT metabolized
- CCOc1ccc2nc(S(N)(=O)=O)sc2c1 [ETHOXZOLAMIDE]: Compound NOT metabolized
- CCCC(C)(COC(N)=O)COC(=O)NC(C)C (stereo not given): Compound metabolized
- CCOC(=O)C1=C[C@]2(CC)CCCN3CCc4c(n1c1ccccc41)[C@@H]32: Compound NOT metabolized

Now examine the next entry.
Documented Bacterial Biotransformation of CC(C)[C@H]1CC[C@H](C(=O)N[C@H](Cc2ccccc2)C(=O)O)CC1 [NATEGLINIDE] : Compound metabolized

---

Conditions: human gut metagenome, 24 h, 2 µM
Measured Parameter: Bacterial Biotransformation

These solved cases illustrate the format of a correct answer.
* CCOC(=O)C1=C[C@]2(CC)CCCN3CCc4c(n1c1ccccc41)[C@@H]32 [VINPOCETINE] | Compound metabolized
* O=C1N=C([O-])NC1(c1ccccc1)c1ccccc1.[Na+] [PHENYTOIN SODIUM] | Compound NOT metabolized
* Br.CN1CCC[C@@H]1Cc1c[nH]c2ccc(CCS(=O)(=O)c3ccccc3)cc12 [ELETRIPTAN HYDROBROMIDE] | Compound metabolized
* CC(C)(C)N.CCC[C@H](N[C@@H](C)C(=O)N1[C@H](C(=O)O)C[C@@H]2CCCC[C@@H]21)C(=O)OCC [PERINDOPRIL ERBUMINE] | Compound metabolized

Documented Bacterial Biotransformation of CN(C)CCOC(C)(c1ccccc1)c1ccccn1.O=C(O)CCC(=O)O (stereo not given) [DOXYLAMINE SUCCINATE] : Compound NOT metabolized

Documented Bacterial Biotransformation of CCOC(=O)[C@H](CCc1ccccc1)N[C@@H](C)C(=O)N1CCC[C@H]1C(=O)O.O=C(O)/C=C\C(=O)O [ENALAPRIL MALEATE] : Compound NOT metabolized

Documented Bacterial Biotransformation of COc1cc2nc(N3CCN(C(=O)C4COc5ccccc5O4)CC3)nc(N)c2cc1OC.CS(=O)(=O)O (stereo not given) [DOXAZOSIN MESYLATE] : Compound metabolized

Documented Bacterial Biotransformation of COc1ccc([C@@H]2Sc3ccccc3N(CCN(C)C)C(=O)[C@@H]2OC(C)=O)cc1 [DILTIAZEM] : Compound metabolized

Documented Bacterial Biotransformation of N#Cc1ccc2[nH]cc(CCCCN3CCN(c4ccc5oc(C(N)=O)cc5c4)CC3)c2c1 [VILAZODONE] : Compound metabolized

---

Settings: human gut metagenome, 24 h, 2 µM
Measured Parameter: Bacterial Biotransformation

These solved cases illustrate the format of a correct answer.
• O=C1CN2Cc3c(ccc(Cl)c3Cl)N=C2N1 [ANAGRELIDE] = Compound metabolized
• CC(C)(C)NCC(O)c1cc(Cl)c(N)c(Cl)c1 (centres undefined) = Compound NOT metabolized
• CC(=O)O[C@]1(C(C)=O)CC[C@H]2[C@@H]3C=C(C)C4=CC(=O)CC[C@]4(C)[C@H]3CC[C@@]21C [MEGESTROL ACETATE] = Compound metabolized
• CC1=C(CC(=O)O)c2cc(F)ccc2/C1=C\c1ccc([S+](C)[O-])cc1 (centres undefined) = Compound metabolized
• C[N+]12CCC(CC1)C(OC(=O)C(O)(c1ccccc1)c1ccccc1)C2.[Br-] (centres undefined) [CLIDINIUM BROMIDE] = Compound metabolized
• CCOC(=O)C1=C[C@]2(CC)CCCN3CCc4c(n1c1ccccc41)[C@@H]32 = Compound metabolized

Documented Bacterial Biotransformation of `c1ccc2[nH]c(-c3cscn3)nc2c1` : Compound NOT metabolized

Documented Bacterial Biotransformation of CCN(C)C(=O)Oc1cccc([C@H](C)N(C)C)c1.O=C(O)C(O)C(O)C(=O)O [RIVASTIGMINE TARTRATE] : Compound NOT metabolized

Documented Bacterial Biotransformation of `CN1[C@@H]2CC[C@H]1C[C@@H](OC(=O)c1c[nH]c3ccccc13)C2` : Compound NOT metabolized

---

Assay: The drug is tested on WLS-220 corresponding to human gut metagenome with ENA study accession number: PRJEB37062 and ENA sample accession number: ERS12561769 for biotransformation under anaerobic condition. The drug concentrations were measured over 9 timepoints collected between 0 and 24 hours of incubation by liquid-chromatography-coupled mass spectrometry (LC–MS)
Details: 2 µM
Measured Parameter: Bacterial Biotransformation

These solved cases illustrate the format of a correct answer.
* CN1CCC(OC(c2ccccc2)c2ccccc2)CC1 | Compound metabolized
* CC(=O)OCC(=O)NCCCOc1cccc(CN2CCCCC2)c1 [ROXATIDINE ACETATE] | Compound metabolized
* CC1=C(CC(=O)O)c2cc(F)ccc2/C1=C\c1ccc([S+](C)[O-])cc1 (centres undefined) | Compound metabolized
* COc1ccc(Cc2nccc3cc(OC)c(OC)cc23)cc1OC | Compound metabolized
* N=C(N)NC(=O)Cc1c(Cl)cccc1Cl | Compound NOT metabolized

Documented Bacterial Biotransformation of `CN(C)CCc1c[nH]c2ccc(CS(=O)(=O)N3CCCC3)cc12` : Compound NOT metabolized

Documented Bacterial Biotransformation of `O=C1CC2(CCCC2)CC(=O)N1CCCCN1CCN(c2ncccn2)CC1` : Compound NOT metabolized

Documented Bacterial Biotransformation of `COc1ccc2c(c1)c(CC(=O)O)c(C)n2C(=O)c1ccc(Cl)cc1` : Compound metabolized

Documented Bacterial Biotransformation of CCOc1ccccc1OCCN[C@H](C)Cc1ccc(OC)c(S(N)(=O)=O)c1.Cl [TAMSULOSIN HYDROCHLORIDE] : Compound NOT metabolized
